// compounds with reported IC50 on RORc (Homo sapiens, UniProt P51449), multi-publication

compound structure	assay result
Cc1nnc(-c2cncc([C@@]34CC[C@@H](c5cc(-c6c(F)cccc6F)nnc53)C4(C)C)n2)[nH]1	30.9 nM
CN(C(=O)CO)[C@@]12CC[C@@H](c3cc(-c4c(F)cccc4F)nnc31)C2(C)C	393 nM

Req: What value of measured IC50 is listed for `CC(C)c1ccc(CN(c2ncnc(NCc3ccc(CC(N)=O)cc3)c2F)C2CC2)cc1` ?
Resp: < 500 nM

====

Literature compilation of IC50 measurements on RORc (Homo sapiens).
API: value field is a number in nM; no unit string.

Example entries begin here.
molecule	target entity	IC50 / nM
C[C@@H]1CN(C[C@@]23CC[C@@H](c4cc(-c5c(F)cccc5F)nnc42)C3(C)C)C(=O)O1	RORc (Homo sapiens)	454
CC1(C)[C@H]2CC[C@]1(CNCCO)c1nnc(-c3c(F)cccc3F)cc12	RORc (Homo sapiens)	2420
CC(=O)OC[C@]12CC[C@H](c3cc(-c4c(F)cccc4Cl)nnc31)C2(C)C	RORc (Homo sapiens)	15
CC1(C)[C@H]2CC[C@]1(c1cnc(C#N)c(C#N)n1)c1nnc(-c3c(F)cccc3F)cc12	RORc (Homo sapiens)	548
CC1(C)[C@@H]2CC[C@@]1(I)c1nnc(-c3ccccc3F)cc12	RORc (Homo sapiens)	338
CC(C)(O)C1CN(c2nccc([C@@]34CC[C@@H](c5cc(-c6c(F)cccc6F)nnc53)C4(C)C)n2)C1	RORc (Homo sapiens)	13.5

Req: Reported IC50 for RORc (Homo sapiens), given `CC1(C)[C@H]2CC[C@]1(N1CCCC1=O)c1nnc(-c3c(F)cccc3F)cc12` ?
Resp: 201

Req: // map CC(NC(=O)c1ccnn1C)c1cc(F)c(CN2[C@@H](C)CC[C@H](c3ccccc3)S2(=O)=O)cc1F (stereo in doubt) to recorded IC50 (system: RORc (Homo sapiens))
Resp: 74.5
